- Method Notes: Cytotoxicity in uninfected MT2 cells, XTT colorimetric assay
- Type: cell-based
- Protocol Conditions: human, day 4, XTT, read-out: cytotoxic CC50
Assay Readout: CC50 at 4 days

Exercise: Please report the recorded CC50 at 4 days for Cn1nc(NS(C)(=O)=O)c2c(Cl)ccc(-n3c([C@H](Cc4cc(F)cc(F)c4)NC(=O)Cn4nc(C(F)F)c5c4C(F)(F)[C@@H]4C[C@H]54)nc4nc(OCCC(C)(F)F)ccc4c3=O)c21 (atropisomer, axis not shown; (P)) .
Solution: > 10 µM

###

- Method Notes: Metabolism in rat liver microsomes
- Type: in vitro ADME
- Protocol Conditions: pH 7.4, 1 μM compound, 1 mg/mL microsomes, NADPH, 37° C., read-out: Rat liver microsome T1/2
Assay Readout: half-life at 1 μM

Exercise: Please report the recorded half-life at 1 μM for Cn1nc(NS(C)(=O)=O)c2c(Cl)ccc(-n3c([C@H](Cc4cc(F)cc(F)c4)NC(=O)Cn4nc(C(F)F)c5c4C(F)(F)[C@@H]4C[C@H]54)nc4nc(OCCC(C)(F)F)ccc4c3=O)c21 (atropisomer, axis not shown; (P)) .
Solution: > 2 h
